The reported measurements were obtained from paper PMC8193046.

target desc: ABCG2 (Homo sapiens)
Sequence (Q9UNQ0 whole entry): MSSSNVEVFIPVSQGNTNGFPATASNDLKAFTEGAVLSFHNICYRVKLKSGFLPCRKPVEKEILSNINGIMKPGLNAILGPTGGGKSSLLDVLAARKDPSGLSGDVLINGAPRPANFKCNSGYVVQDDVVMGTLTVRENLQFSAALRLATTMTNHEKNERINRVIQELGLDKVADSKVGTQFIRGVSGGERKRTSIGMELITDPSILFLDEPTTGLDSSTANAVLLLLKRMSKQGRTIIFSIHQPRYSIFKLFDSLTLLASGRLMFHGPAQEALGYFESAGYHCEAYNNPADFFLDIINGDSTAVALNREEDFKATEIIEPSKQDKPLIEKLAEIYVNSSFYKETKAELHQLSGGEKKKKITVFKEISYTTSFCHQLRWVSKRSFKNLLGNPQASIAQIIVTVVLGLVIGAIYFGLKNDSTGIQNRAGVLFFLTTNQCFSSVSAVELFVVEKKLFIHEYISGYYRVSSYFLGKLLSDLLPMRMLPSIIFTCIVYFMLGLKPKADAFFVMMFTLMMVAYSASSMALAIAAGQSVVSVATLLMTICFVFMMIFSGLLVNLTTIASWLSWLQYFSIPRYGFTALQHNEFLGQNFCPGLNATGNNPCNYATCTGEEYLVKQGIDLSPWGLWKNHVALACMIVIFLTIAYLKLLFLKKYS
test name: pheophorbide A fluorescence accumulation assay, ABCG2-overexpressing MDCK II BCRP cells
test conditions: pheophorbide A assay, MDCK II BCRP cells; 100% = 10 µM reference inhibitor 27; read-out: IC50 against ABCG2
quantity: pIC50
FYI, pIC50 means -log10 of a concentration in mol per litre.

Returns the measured pIC50 for the input molecule. Input: Cc1nc(N2CCN(C(=O)C(c3ccccc3)c3ccccc3)CC2)cc(-n2ccnc2)n1
5.03
